Target: Dickkopf-related protein 1 (Homo sapiens) (UniProt O94907)
Sequence (O94907 whole entry, looked up): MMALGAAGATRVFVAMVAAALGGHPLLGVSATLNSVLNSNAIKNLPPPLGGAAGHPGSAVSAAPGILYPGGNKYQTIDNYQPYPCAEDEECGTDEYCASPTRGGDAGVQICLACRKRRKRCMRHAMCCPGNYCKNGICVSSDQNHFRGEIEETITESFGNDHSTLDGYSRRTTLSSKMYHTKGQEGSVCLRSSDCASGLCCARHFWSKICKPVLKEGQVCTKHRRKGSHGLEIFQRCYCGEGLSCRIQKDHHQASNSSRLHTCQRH
Test: DKK1 binders on small-molecule microarrays, primary screen, biochemical, small-molecule microarray, 635 nm fluorescence scan (AID 1106);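 note: score merges emission near 667 nm with signal to noise over three replicate slides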
Conditions: DKK1 binding, higher = more signal
# composite z-score >= 0.1 gives satisfied, anything below gives not satisfied

{"smiles.data": "COc1ccccc1CN1C(=O)c2ccccc2[C@@]2(Cc3ccccc3N(CC(C)C)C2=O)[C@@H]1c1ccc(CO)cc1", "label.value": "not satisfied"}
{"smiles.data": "COc1cccc(-c2cccc(=O)o2)c1", "label.value": "satisfied"}
{"smiles.data": "C=CC[C@@]1(C(=O)NCCN2CCOCC2)N=C(c2ccc(OCCCO)cc2)O[C@@H]1c1ccccc1N=[N+]=[N-]", "label.value": "not satisfied"}
{"smiles.data": "C=C(CCCC)/C(=C/C[C@@H](OC(C)=O)c1ccc(OCCO)cc1)c1cnc2ccccc2c1", "label.value": "satisfied"}
{"smiles.data": "COCCOC(=O)N1C(=O)[C@@]2(c3cc(C#CC4(O)CCCCCC4)ccc31)[C@H](c1ccc(OCCO)cc1)N1[C@H](c3ccccc3)[C@H](c3ccccc3)OC(=O)[C@H]1[C@@H]2C(=O)N1CCN(c2ncccn2)CC1", "label.value": "satisfied"}
{"smiles.data": "C#C[C@H](O[Si](C#Cc1ccc(Oc2ccccc2)cc1)(C(C)C)C(C)C)c1ccccc1", "label.value": "not satisfied"}
{"smiles.data": "CCc1cccc(NC(=O)O[C@H]2[C@H](OC(=O)Nc3ccccc3-c3ccccc3)[C@@H](OC(=O)Nc3ccccc3-c3ccccc3)[C@@H](OC)O[C@@H]2CO)c1", "label.value": "not satisfied"}

----------
Target: Follistatin (Homo sapiens) (UniProt P19883)
Sequence (P19883 whole entry, looked up): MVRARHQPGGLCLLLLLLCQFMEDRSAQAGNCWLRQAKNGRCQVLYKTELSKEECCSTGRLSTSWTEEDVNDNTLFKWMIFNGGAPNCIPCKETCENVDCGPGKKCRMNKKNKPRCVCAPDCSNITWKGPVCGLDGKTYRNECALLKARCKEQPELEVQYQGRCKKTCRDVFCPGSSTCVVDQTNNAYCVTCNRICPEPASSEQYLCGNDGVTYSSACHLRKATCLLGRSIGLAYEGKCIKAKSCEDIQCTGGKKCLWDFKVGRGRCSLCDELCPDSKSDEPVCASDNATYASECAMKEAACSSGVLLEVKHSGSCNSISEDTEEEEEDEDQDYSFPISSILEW
Experiment: follistatin binders on small-molecule microarrays, primary screen, biochemical, small-molecule microarray, 635/667 nm fluorescence (AID 1132)
Settings: FST binding, 635 nm fluorescence, higher = more signal
quantity.name: composite z-score

{"compound": "C=CCC(OC(C)=O)[C@@H]1[C@@H](N(Cc2ccc(-c3ccccc3)cc2)C(=O)c2ccc(-c3ccccc3)cc2)c2cc(OCCCO)ccc2N1C(=O)Cc1ccc2ccccc2c1 (some centres not stated)", "system.under.test": "Follistatin (Homo sapiens) (UniProt P19883)", "quantity.name": "composite z-score", "measured": 0.456}
{"compound": "O=C1C2C=CC(C(O)c3cc(C(F)(F)F)cc(C(F)(F)F)c3)N(n3cnnc3)C2C(=O)N1Cc1ccccc1 (configuration not stated)", "system.under.test": "Follistatin (Homo sapiens) (UniProt P19883)", "quantity.name": "composite z-score", "measured": -0.192}
{"compound": "COCCOC(=O)N1C(=O)[C@@]2(c3cc(C#CCC(C(=O)OC)C(=O)OC)ccc31)[C@H](c1ccccc1OCCO)N1[C@H](c3ccccc3)[C@H](c3ccccc3)OC(=O)[C@H]1[C@@H]2C(=O)N1CCN(c2ncccn2)CC1", "system.under.test": "Follistatin (Homo sapiens) (UniProt P19883)", "quantity.name": "composite z-score", "measured": 1.38}
{"compound": "C=CCC(OC(C)=O)[C@@H]1[C@@H](N(Cc2cccc3ccccc23)C(=O)c2ccc(-c3ccccc3)cc2)c2cc(OCCCO)ccc2N1C(=O)c1ccc2ccccc2c1 (some centres not stated)", "system.under.test": "Follistatin (Homo sapiens) (UniProt P19883)", "quantity.name": "composite z-score", "measured": 0.906}
{"compound": "C=CCOC(=O)[C@H]1[C@@H]2C(=O)O[C@@H](c3ccccc3)[C@@H](c3ccccc3)N2[C@@H](c2ccc(OCCOC(=O)[C@H]3C[C@H]4C(=O)N[C@@H](CCCCNC(C)=O)C(=O)N4[C@H]3c3ccc(O)cc3)cc2)[C@]12C(=O)Nc1ccc(I)cc12", "system.under.test": "Follistatin (Homo sapiens) (UniProt P19883)", "quantity.name": "composite z-score", "measured": 1.35}
{"compound": "C=CC[C@]1(C(=O)NCCCOC)N=C(c2ccc(OCCCO)cc2)O[C@H]1c1ccccc1CN=[N+]=[N-]", "system.under.test": "Follistatin (Homo sapiens) (UniProt P19883)", "quantity.name": "composite z-score", "measured": 1.14}
{"compound": "COc1cc2c(cc1O)C(c1cccs1)N(C)CC2 (configuration not stated)", "system.under.test": "Follistatin (Homo sapiens) (UniProt P19883)", "quantity.name": "composite z-score", "measured": -0.123}
{"compound": "COc1cc(COC(C)=O)ccc1OC(C)=O", "system.under.test": "Follistatin (Homo sapiens) (UniProt P19883)", "quantity.name": "composite z-score", "measured": 0.512}
{"compound": "COC(=O)[C@H](Cc1ccccc1)N1CC2=C[C@@H](C3CC3)n3c(=O)n(C)c(=O)n3[C@H]2[C@@H]1[C@@H](O)Cc1ccccc1", "system.under.test": "Follistatin (Homo sapiens) (UniProt P19883)", "quantity.name": "composite z-score", "measured": 0.898}
{"compound": "COC(=O)[C@@]1(Cc2ccc(F)cc2)[C@H]2c3cc(C(=O)N(C)C)n(Cc4ccc(Cl)c(C(F)(F)F)c4)c3C[C@H]2CN1C(=O)c1ccccc1", "system.under.test": "Follistatin (Homo sapiens) (UniProt P19883)", "quantity.name": "composite z-score", "measured": 0.909}
{"compound": "CCOC(=O)C[C@H]1[C@H](OC(=O)c2cc3ccccc3oc2=O)[C@@H](NC(=O)c2ccccc2)c2cc(OCCCO)ccc2N1C(=O)c1ccc2ccccc2n1", "system.under.test": "Follistatin (Homo sapiens) (UniProt P19883)", "quantity.name": "composite z-score", "measured": 1.19}
{"compound": "O=C(NCCO)C1=C[C@H](Oc2ccccc2I)[C@@H](O)[C@H](N(Cc2ccco2)C(=O)Cc2ccccc2)C1", "system.under.test": "Follistatin (Homo sapiens) (UniProt P19883)", "quantity.name": "composite z-score", "measured": 0.863}
{"compound": "O=C1C[C@@](C(=O)NCCN2CCOCC2)(c2ccc([N+](=O)[O-])cc2)[C@@H](c2ccc(CO)cc2)N1CC12CC3CC(CC(C3)C1)C2", "system.under.test": "Follistatin (Homo sapiens) (UniProt P19883)", "quantity.name": "composite z-score", "measured": 1.34}
{"compound": "O=C1NC(=O)C2C1C=CC(C(O)c1cccs1)N2Nc1ccc(Cl)cc1Cl (configuration not stated)", "system.under.test": "Follistatin (Homo sapiens) (UniProt P19883)", "quantity.name": "composite z-score", "measured": -0.222}
{"compound": "COc1ccc(C(O)C2C=CC3C(=O)N(Cc4ccccc4)C(=O)C3N2n2cnnc2)cc1OCc1ccccc1 (configuration not stated)", "system.under.test": "Follistatin (Homo sapiens) (UniProt P19883)", "quantity.name": "composite z-score", "measured": 0.319}
{"compound": "COc1ccc(CCNC(=O)[C@@H]2c3ccccc3C(=O)N(Cc3ccccc3Cl)[C@H]2c2ccc(CO)cc2)cc1", "system.under.test": "Follistatin (Homo sapiens) (UniProt P19883)", "quantity.name": "composite z-score", "measured": 0.495}
{"compound": "COC(=O)[C@@]1(CCS(=O)(=O)c2ccccc2)N=C(c2ccc(OCCCO)cc2)O[C@H]1c1ccccc1CN=[N+]=[N-]", "system.under.test": "Follistatin (Homo sapiens) (UniProt P19883)", "quantity.name": "composite z-score", "measured": 1.31}
{"compound": "COc1cc(C(O)C2C=CC3C(=O)NC(=O)C3N2Nc2ccccn2)cc(OC)c1OC (configuration not stated)", "system.under.test": "Follistatin (Homo sapiens) (UniProt P19883)", "quantity.name": "composite z-score", "measured": 0.169}
{"compound": "C=C(CC1([C@@H](NP(=O)(c2ccccc2)c2ccccc2)[C@H]2C[C@@H]2CCCC)CC1)c1ccccc1", "system.under.test": "Follistatin (Homo sapiens) (UniProt P19883)", "quantity.name": "composite z-score", "measured": 0.132}
{"compound": "NC(=O)NCC#Cc1ccc2c(c1)[C@]1(C(=O)N2)[C@H](C(=O)Nc2nc3ccccc3s2)[C@H]2C(=O)O[C@H](c3ccccc3)[C@H](c3ccccc3)N2[C@@H]1c1ccccc1OCCO", "system.under.test": "Follistatin (Homo sapiens) (UniProt P19883)", "quantity.name": "composite z-score", "measured": 1.22}
{"compound": "CC(C)N1C(=O)C[C@@](C(=O)NCC(F)(F)F)(c2ccc([N+](=O)[O-])cc2)[C@H]1c1ccc(CO)cc1", "system.under.test": "Follistatin (Homo sapiens) (UniProt P19883)", "quantity.name": "composite z-score", "measured": 0.409}
{"compound": "COCCOC(=O)N1C(=O)[C@@]2(c3cc(C#CCCO)ccc31)[C@H](C(N)=O)[C@H]1C(=O)O[C@H](c3ccccc3)[C@H](c3ccccc3)N1[C@@H]2c1ccc(O)cc1", "system.under.test": "Follistatin (Homo sapiens) (UniProt P19883)", "quantity.name": "composite z-score", "measured": -0.15}
{"compound": "C=CCNC(=O)[C@@H]1[C@H]2C(=O)O[C@H](c3ccccc3)[C@H](c3ccccc3)N2[C@H](c2ccccc2OCCO)[C@@]12C(=O)N(C(=O)OCCOC)c1ccccc12", "system.under.test": "Follistatin (Homo sapiens) (UniProt P19883)", "quantity.name": "composite z-score", "measured": 1.39}
{"compound": "Cc1ccc(S[C@]2(C(=O)NC3CC3)CC(=O)N(Cc3ccccc3)[C@@H]2c2ccc(CO)cc2I)cc1", "system.under.test": "Follistatin (Homo sapiens) (UniProt P19883)", "quantity.name": "composite z-score", "measured": -0.868}
{"compound": "C=C(C)[C@@H]1CC=C(C(O)C2C=CC3C(=O)N(C)C(=O)C3N2Nc2ccccc2)CC1 (some centres not stated)", "system.under.test": "Follistatin (Homo sapiens) (UniProt P19883)", "quantity.name": "composite z-score", "measured": 1.38}
{"compound": "CCCc1cc2c(n1Cc1cc(F)cc(F)c1)C(C)C1CN(C(=O)c3ccccc3)C(C)(C(=O)OC)C21 (configuration not stated)", "system.under.test": "Follistatin (Homo sapiens) (UniProt P19883)", "quantity.name": "composite z-score", "measured": 0.542}
{"compound": "COCCOC(=O)N1C(=O)[C@@]2(c3cc(C#CC4(O)CCCCCC4)ccc31)[C@H](c1ccccc1OCCO)N1[C@H](c3ccccc3)[C@H](c3ccccc3)OC(=O)[C@H]1[C@@H]2C(=O)N1CCN(c2ncccn2)CC1", "system.under.test": "Follistatin (Homo sapiens) (UniProt P19883)", "quantity.name": "composite z-score", "measured": 1.19}
